target-or-system: human IL-1β (human, UniProt P01584 117-269)
test-summary: cell-based or functional assay
metric: MRC5 ND50 (nM)

Completed entries (count: 3):
{"columns": ["binder", "value-units", "MRC5 ND50"],
 "data": [
  ["ABT2-42 (other, VK dAb) VL: DIQMTQSPSSLSASVGDRVTITCRASQYIEKWLTWYQQKPGKAPTLLIYRGSLLQSGVPSRFSGSGSGTDFTLTISSLQPEDFATYYCQQTEYWPFTFGQGTKVEIKR", "nM", 770],
  ["ABT2-46 (other, VK dAb) VL: DIQMTQSPSSLSASVGDRVTITCRASQSIIEWLSWYQQKPGKAPKLLIYRTSVLQSGVPSRFSGSGSGTDFTLTISSLQPEDFATYYCQQNEFWPFTFGQGTKVEIKR", "nM", 386],
  ["ABT2-65 (other, VH dAb) VH: EVQLLESGGGLVQPGGSLRLSCAASGFTFEDYQMGWVRQAPGKGLEWVSSISAMGNRTYYADSVKGRFTISRDDSKNTLYLQMNSLRAEDTAVYYCAKNLVRTQSKMWMFDYWGQGTLVTVSS", "nM", 266]
]}

[A] ABT2-76 (other, VK dAb) VL: DIQMTQSPSSLSASVGDRVTITCRASQSIDRWLAWYQQKPGKAPKLLIYRGSILQSGVPSRFSGSGSGTDFTLTISSLQPEDFATYYCQQVAFWPPTFGQGTKVEIKR
[B] ABT2-108 (other, VH dAb) VH: EVQLLESGGGLVQPGGSLRLSCAASGFTFAEYTMMWVRQAPGKGLEWVSRIGQDGKNTYYADSVKGRFTISRDNSKNTLYLQMNSLRAEDTAVYYCAKYTGRVGVHHLFDYWGQGTLVTSS
Task: Could you point out whether the larger MRC5 ND50 belongs to A or to B ? Please indicate the selected item by its label.
Result: A
(A: 456 nM, B: 200 nM)
